Species: Rattus norvegicus
METHOD: Selectivity ratio for Ki for rat D2 receptor to Ki for rat D3 receptor
# if value of Ratio Ki reaches 20, tag fulfilled; if it stays below, tag not fulfilled

Please review the following examples before continuing.
CCCN(CCN1CCN(c2cccnc2)CC1)C1CCc2ccc(O)cc2C1 (stereo unspecified): not fulfilled
CCCN(CCN1CCN(c2ncccn2)CC1)C1CCc2ccc(O)cc2C1 (stereo unspecified): fulfilled
CCCN(CCN1CCN(c2ccccn2)CC1)C1CCc2ccc(O)cc2C1 (stereo unspecified): fulfilled
CCCN(CCN1CCN(c2ccc(-c3ccccc3)cc2)CC1)C1CCc2ccc(O)cc2C1 (stereo in doubt; (+)-8a): fulfilled

Prompt line: // inclusive: Ratio Ki at least 20? input: CCCN(CCN1CCN(c2ccc(I)cc2)CC1)C1CCc2ccc(O)cc2C1 (stereo unspecified)
Response line: not fulfilled

Prompt line: Also CCCN(CCN1CCN(c2ccncc2)CC1)C1CCc2ccc(O)cc2C1 (stereo unspecified) ?
Response line: not fulfilled

Prompt line: CCCN(CCN1CCN(c2nccc3ccccc23)CC1)[C@H]1CCc2nc(N)sc2C1 , same question.
Response line: fulfilled

Prompt line: Same again, this time with CCCN(CCN1CCN(c2ccc(-c3ccncc3)cc2)CC1)C1CCc2ccc(O)cc2C1 (stereo in doubt; 22d)
Response line: fulfilled

Prompt line: Proceed to CCCN(CCN1CCN(c2ccc(-c3ccccc3)cc2)CC1)C1CCc2c(O)cccc2C1 (single isomer, unassigned; (-))
Response line: fulfilled

Prompt line: Similarly, CCCN(CCN1CCN(c2ccc(-c3ccncc3)cc2)CC1)C1CCc2ccc(O)cc2C1 (single isomer, unassigned; (-)) ?
Response line: fulfilled

---

Recorded EC50, one value per entry.
TARGET ENTITY: D(2) dopamine receptor (Homo sapiens)
Sequence (P14416 whole entry): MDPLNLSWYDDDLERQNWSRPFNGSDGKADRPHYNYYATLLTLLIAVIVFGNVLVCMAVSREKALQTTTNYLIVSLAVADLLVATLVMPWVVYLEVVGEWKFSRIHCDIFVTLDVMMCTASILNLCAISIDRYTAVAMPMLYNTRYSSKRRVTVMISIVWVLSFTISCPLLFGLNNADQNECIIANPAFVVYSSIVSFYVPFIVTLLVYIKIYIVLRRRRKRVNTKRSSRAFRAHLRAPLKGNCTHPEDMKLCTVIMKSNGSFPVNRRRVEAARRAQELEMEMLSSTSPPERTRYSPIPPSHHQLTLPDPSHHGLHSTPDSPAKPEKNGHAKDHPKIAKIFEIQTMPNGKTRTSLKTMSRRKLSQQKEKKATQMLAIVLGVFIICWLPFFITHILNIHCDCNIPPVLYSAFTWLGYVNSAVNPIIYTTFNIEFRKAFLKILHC
METHOD: Agonist activity at human dopamine D2 receptor expressed in CHO cells assessed as stimulation of [35S]GTPgammaS binding
Record the value in nM, omitting the unit from your answer.

CCCN(CCN1CCN(c2ccc(-c3ccccc3)cc2)CC1)C1CCc2ccc(O)cc2C1 (stereo in doubt; (+)-8a): 108

Consider the record given below.
Prompt line: Need EC50 of CCCN(CCN1CCN(c2ccc(-c3ccccc3)cc2)CC1)C1CCc2c(O)cccc2C1 (single isomer, unassigned; (-)) , thanks.
Response line: 52.6

---

# maps each entry to its Emax
TARGET ENTITY: D(2) dopamine receptor (Homo sapiens)
METHOD: Agonist activity at human dopamine D2 receptor expressed in CHO cells assessed as stimulation of [35S]GTPgammaS binding relative to dopamine
Format: functional, cell-based
Kindly provide the numeric value in % only, without the unit symbol.

NCCc1ccc(O)c(O)c1: 100
CCCN(CCC)CCc1cccc2c1CC(=O)N2: 83.9
CCCN(CCN1CCN(c2ccc(-c3ccccc3)cc2)CC1)C1CCc2c(O)cccc2C1 (single isomer, unassigned; (-)): 71.8

Next up:
Prompt line: What value of measured Emax is listed for CCCN(CCN1CCN(c2ccc(-c3ccccc3)cc2)CC1)C1CCc2ccc(O)cc2C1 (stereo in doubt; (+)-8a) ?
Response line: 42.1

---

TARGET ENTITY: D(2) dopamine receptor (Rattus norvegicus)
Sequence (P61169 whole entry): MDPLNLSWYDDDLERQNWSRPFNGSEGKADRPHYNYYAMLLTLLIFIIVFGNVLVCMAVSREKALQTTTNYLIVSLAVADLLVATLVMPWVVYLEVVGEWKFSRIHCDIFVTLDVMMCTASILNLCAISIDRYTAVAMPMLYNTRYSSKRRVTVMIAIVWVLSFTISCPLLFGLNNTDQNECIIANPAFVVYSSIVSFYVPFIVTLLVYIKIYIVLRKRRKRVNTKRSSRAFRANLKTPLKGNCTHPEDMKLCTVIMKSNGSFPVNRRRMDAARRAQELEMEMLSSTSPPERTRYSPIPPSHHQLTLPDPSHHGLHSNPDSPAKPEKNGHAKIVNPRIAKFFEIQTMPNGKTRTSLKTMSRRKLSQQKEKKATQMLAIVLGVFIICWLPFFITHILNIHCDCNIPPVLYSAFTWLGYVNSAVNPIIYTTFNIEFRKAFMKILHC
METHOD: Displacement of [3H]spiperone from rat D2 receptor expressed in HEK293 cells
pKi: −log10 of the molar value.
Label Satisfied when pKi >= 7; otherwise Not satisfied.

Check out these entries, answers already filled in.
CCCN(CCN1CCN(c2ccc(-c3ccccc3)cc2)CC1)C1CCc2ccc(O)cc2C1 (stereo in doubt; (+)-8a): Satisfied
CCCN(CCC)CCc1cccc2c1CC(=O)N2: Not satisfied
CCCN(CCN1CCN(c2ncccn2)CC1)C1CCc2ccc(O)cc2C1 (stereo unspecified): Not satisfied
CCCN(CCN1CCN(c2ccc(-c3ccncc3)cc2)CC1)C1CCc2ccc(O)cc2C1 (stereo in doubt; 22d): Satisfied
CCCN(CCN1CCN(c2ccc(-c3cccnc3)cc2)CC1)C1CCc2ccc(O)cc2C1 (racemic): Satisfied

Prompt line: Decide: is the reported value of pKi for CCCN(CCN1CCN(c2ccc(I)cc2)CC1)C1CCc2ccc(O)cc2C1 (stereo unspecified) equal to or greater than 7?
Response line: Satisfied

Prompt line: Next compound up: CCCN(CCN1CCN(c2cccnc2)CC1)C1CCc2ccc(O)cc2C1 (stereo unspecified)
Response line: Satisfied

Prompt line: Then what about the compound CCCN(CCN1CCN(c2ccc(-c3ccccc3)cc2)CC1)C1CCc2c(O)cccc2C1 (single isomer, unassigned; (-)) ?
Response line: Satisfied
